Biological target: T1, cynomolgus monkey CD8A on primary cynomolgus monkey CD8+ T cells (cynomolgus monkey, UniProt P01732 23-235 (human entry))
T1 construct: also called Cyno CD8alpha
T1 sequence (P01732 other isoform, or with tags, fused parts or gaps limits assumed): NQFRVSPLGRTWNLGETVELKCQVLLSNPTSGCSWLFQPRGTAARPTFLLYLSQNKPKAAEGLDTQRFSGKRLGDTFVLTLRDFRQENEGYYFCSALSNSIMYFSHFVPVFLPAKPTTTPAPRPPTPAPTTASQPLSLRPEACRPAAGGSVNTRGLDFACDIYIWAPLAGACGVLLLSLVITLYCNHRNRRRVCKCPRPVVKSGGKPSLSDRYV
Assay: flow cytometry, cyno CD8+ T cells, 0.2 uM FN3
Description: Binding of the 190 ELISA hits to human and cynomologous monkey primary CD8 T cells was assessed by flow cytometry. The FN3 domain molecules were diluted to 2 μM and 0.2 μM in PBS and incubated with human or cynomologous monkey CD8+ T cells in 96-well format. […] Cells were gating on live cells and median fluorescence intensity of the bound Centyrins (PE channel) was calculated using Cytobank software.
quantity-kind: Cyno T-cell Binding 0.2 uM (MFI)

binder	Cyno T-cell Binding 0.2 uM (MFI)
P282DR9P1359_A7 (designed binder, FN3 domain) LPAPKNLVVSRVTEDSARLSWTAPDAAFDSFRIGYPELEKLGYGEAIVLTVPGSERSYDLTGLKPGTEYWVIIWGVKGGENSWPLSAIFTT	22800 MFI
P283BR9P1363_B6 (designed binder, FN3 domain) LPAPKNLVVSRVTEDSARLSWQRHSDAHPLFDSFLIQYQESEKVGEAIVLTVPGSERSYDLTGLKPGTEYTVSIYGVDVKWEGNRPVASNPLSAIFTT	6840 MFI
P282AR9P1356_D3 (designed binder, FN3 domain) LPAPKNLVVSRVTEDSARLSWTRHETSFDSFLIQYRESEKVGEAIVLTVPGSERSYDLTGLKPGTEYTVSIYGVVVEYDAAGNPKYSNPLSAIFTT	3360 MFI

So what's the measured Cyno T-cell Binding 0.2 uM (MFI) for this one? P283AR9P1362_D4 (designed binder, FN3 domain) LPAPKNLVVSRVTEDSARLSWVREHDSFDSFLIQYQESEKVGEAIVLTVPGSERSYDLTGLKPGTEYTVSIYGVDVKYDIDSRPISSNPLSAIFTT 4100 MFI

Measured values drawn from patent US20210032312A1 for this set.
